target-system: UniProt:P9WQ01
protocol: biochemical
Format: binding
condition-summary: ITC Kd, six-site sequential binding model, 6th value, 25 °C, sequential binding, six-site model
measured-endpoint: Kd (µM)
I only need the number, in µM, no unit after it.

{"columns": ["molecule", "Kd (µM)"],
 "data": [
  ["N=C(N)NCCC[C@H](N)C(=O)O", 42]
]}

Pending molecule:
[Q] Item under review: NC(N)=NOCC[C@H](N)C(=O)O [L-canavanine, reference compound] . Reported Kd?
[A] 137

* * *

Consider the following compounds and their measured IC50 readings.
target-system: ArgB (Mycobacterium tuberculosis)
protocol: ArgB enzymatic assay (ADP release coupled to NADH oxidation, pyruvate kinase/lactate dehydrogenase)
Type: biochemical
condition-summary: 0.5 µM ArgB, 0.3 mM ATP, 1.25 mM NAG, 10% DMSO; read-out: IC50
Write the value in µM as a bare number.

{"columns": ["compound", "IC50 (µM)"],
 "data": [
  ["O=c1cc[nH]c2c(C(F)(F)F)cccc12 [NMR446, 8-(trifluoromethyl)-1H-quinolin-4-one]", 707]
]}

[Q] What does the record list as IC50 for O=c1cc(C(F)(F)F)[nH]c2c(C(F)(F)F)cccc12 [NMR711] ?
[A] 366
